Would you kindly list log10 of MHET released for each of these sequences?
# assay_overview: MHET released, HPLC; higher = more MHET released; extreme values may be limits of the assay
# particulars: PET substrate: aFilm; 60 °C; pH 9.5; 24 h
Give log10 of MHET released, with MHET released taken in mM.

# count of solved cases: 2
[[record]]
record_sequence = "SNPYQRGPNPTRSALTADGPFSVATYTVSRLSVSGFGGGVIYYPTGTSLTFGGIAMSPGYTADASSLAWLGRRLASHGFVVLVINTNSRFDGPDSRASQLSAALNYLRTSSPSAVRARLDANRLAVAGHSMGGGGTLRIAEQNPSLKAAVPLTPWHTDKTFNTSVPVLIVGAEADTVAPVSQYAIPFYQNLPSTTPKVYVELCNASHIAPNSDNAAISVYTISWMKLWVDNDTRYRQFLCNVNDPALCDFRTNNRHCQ [LCC-A2]"
numeric_result = 0.42

[[record]]
record_sequence = "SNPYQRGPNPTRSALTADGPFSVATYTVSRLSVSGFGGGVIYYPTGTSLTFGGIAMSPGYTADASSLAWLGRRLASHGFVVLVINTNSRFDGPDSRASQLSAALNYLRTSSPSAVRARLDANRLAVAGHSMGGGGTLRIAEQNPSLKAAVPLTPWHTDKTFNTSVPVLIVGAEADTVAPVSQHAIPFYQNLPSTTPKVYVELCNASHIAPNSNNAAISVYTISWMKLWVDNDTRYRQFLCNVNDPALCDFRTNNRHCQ [LCC-ICCG]"
numeric_result = 0.34


// each listed sequence needs a value for log10 of MHET released
1. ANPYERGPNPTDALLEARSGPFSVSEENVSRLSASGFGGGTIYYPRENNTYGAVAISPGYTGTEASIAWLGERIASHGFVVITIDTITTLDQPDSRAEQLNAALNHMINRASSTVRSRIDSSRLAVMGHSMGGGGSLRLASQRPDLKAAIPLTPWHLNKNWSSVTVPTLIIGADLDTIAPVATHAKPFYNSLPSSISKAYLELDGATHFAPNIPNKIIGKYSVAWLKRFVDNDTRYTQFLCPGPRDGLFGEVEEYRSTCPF [TfCut2]
2. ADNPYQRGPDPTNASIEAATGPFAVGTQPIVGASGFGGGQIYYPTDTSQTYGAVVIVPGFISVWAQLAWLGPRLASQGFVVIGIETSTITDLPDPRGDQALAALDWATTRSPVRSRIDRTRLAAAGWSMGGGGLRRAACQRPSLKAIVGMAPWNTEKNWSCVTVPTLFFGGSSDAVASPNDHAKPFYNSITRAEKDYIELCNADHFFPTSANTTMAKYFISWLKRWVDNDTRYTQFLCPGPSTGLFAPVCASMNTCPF [CaPETaseM9]
3. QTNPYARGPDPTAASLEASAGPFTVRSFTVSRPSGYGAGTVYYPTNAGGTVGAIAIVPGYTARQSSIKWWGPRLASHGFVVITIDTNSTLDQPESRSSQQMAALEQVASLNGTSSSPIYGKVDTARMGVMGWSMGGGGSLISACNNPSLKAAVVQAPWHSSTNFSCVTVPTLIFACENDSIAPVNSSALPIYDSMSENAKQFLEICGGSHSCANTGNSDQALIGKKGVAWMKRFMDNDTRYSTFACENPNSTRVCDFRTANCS [Z1-PETase]
4. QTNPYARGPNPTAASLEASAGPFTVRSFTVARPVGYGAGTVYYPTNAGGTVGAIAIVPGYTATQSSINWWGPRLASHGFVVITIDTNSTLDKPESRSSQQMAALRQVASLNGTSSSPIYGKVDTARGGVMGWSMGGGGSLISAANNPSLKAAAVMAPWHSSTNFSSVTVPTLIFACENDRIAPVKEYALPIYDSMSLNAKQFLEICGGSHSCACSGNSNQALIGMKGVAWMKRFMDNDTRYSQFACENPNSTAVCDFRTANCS [HotPETase]

Response given:
1. -0.84
2. -0.91
3. 0.01
4. 0.26

====

# assay_overview: PET hydrolysis product formed (TPA+MHET+BHET, UV-Vis) per mg enzyme (mmol/mg enzyme); higher = more PET depolymerisation activity; extreme values may be limits of the assay
# particulars: PET substrate: aFilm; 60 °C; pH 8.5; 2 h
Would you kindly list PET hydrolysis product formed for each of these sequences?
Give bare numbers.

# count of solved cases: 5
[[record]]
record_sequence = "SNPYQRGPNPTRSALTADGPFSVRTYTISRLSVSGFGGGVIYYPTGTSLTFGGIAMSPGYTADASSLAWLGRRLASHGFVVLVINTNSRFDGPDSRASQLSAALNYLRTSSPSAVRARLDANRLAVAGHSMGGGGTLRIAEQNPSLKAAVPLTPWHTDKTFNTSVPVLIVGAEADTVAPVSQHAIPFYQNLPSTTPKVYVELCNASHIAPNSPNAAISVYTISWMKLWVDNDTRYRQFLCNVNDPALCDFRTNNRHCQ [LCC-ICCG RIP]"
numeric_result = 0.0326

[[record]]
record_sequence = "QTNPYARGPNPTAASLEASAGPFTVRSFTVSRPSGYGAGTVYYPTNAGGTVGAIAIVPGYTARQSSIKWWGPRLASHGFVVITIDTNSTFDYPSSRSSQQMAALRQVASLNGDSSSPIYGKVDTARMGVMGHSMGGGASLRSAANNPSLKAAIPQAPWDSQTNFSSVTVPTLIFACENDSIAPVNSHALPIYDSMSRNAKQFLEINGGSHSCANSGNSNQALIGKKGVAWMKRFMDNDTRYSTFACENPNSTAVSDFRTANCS [DuraPETase]"
numeric_result = 0

[[record]]
record_sequence = "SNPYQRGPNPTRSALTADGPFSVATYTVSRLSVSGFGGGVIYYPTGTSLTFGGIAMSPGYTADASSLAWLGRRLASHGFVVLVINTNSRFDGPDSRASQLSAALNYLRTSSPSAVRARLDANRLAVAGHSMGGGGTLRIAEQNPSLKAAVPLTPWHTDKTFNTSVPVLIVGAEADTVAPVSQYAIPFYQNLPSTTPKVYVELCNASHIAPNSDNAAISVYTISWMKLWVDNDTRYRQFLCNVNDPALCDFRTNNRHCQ [LCC-A2]"
numeric_result = 0.0742

[[record]]
record_sequence = "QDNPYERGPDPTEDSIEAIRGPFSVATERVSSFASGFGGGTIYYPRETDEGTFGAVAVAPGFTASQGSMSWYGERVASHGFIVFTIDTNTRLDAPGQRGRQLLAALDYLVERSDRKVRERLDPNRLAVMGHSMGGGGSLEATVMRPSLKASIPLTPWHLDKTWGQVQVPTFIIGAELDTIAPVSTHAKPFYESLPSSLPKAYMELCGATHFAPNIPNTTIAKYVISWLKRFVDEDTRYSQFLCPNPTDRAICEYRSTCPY [Cut190*SS]"
numeric_result = 0

[[record]]
record_sequence = "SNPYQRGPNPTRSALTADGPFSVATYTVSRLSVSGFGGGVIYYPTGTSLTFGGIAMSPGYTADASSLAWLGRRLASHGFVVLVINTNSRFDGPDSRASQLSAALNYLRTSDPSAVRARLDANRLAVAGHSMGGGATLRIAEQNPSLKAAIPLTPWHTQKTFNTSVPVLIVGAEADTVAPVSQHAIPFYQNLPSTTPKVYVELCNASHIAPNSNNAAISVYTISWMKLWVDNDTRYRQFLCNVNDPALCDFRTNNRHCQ [LCC-ICCG DAQI]"
numeric_result = 0.0525


Could you now consider this next sequence?
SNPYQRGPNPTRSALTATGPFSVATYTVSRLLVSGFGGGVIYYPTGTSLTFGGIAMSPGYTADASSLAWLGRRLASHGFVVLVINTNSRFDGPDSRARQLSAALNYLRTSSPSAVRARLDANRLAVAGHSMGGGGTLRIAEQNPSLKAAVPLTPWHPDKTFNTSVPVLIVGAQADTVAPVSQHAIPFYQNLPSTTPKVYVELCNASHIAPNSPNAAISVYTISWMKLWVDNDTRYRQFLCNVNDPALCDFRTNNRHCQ [LCC-ICCG I6M] has a reported PET hydrolysis product formed of 0.0336

====

# assay_overview: terephthalic acid (TPA) released, HPLC; higher = more TPA released; extreme values may be limits of the assay
# particulars: PET substrate: cryPow; 60 °C; pH 6.5; 24 h
readout_name: terephthalic acid (mM)
Answers are plain numbers, in mM.

# count of solved cases: 4
[[record]]
record_sequence = "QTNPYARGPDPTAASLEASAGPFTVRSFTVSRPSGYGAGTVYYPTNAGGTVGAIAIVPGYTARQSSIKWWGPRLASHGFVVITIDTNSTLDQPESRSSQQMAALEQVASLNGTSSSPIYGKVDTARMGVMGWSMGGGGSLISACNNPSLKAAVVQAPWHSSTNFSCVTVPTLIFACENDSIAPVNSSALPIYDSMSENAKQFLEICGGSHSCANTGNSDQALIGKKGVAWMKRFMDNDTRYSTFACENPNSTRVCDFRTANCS [Z1-PETase]"
readout_name = "terephthalic acid"
value_unit = "mM"
numeric_result = 0.114

[[record]]
record_sequence = "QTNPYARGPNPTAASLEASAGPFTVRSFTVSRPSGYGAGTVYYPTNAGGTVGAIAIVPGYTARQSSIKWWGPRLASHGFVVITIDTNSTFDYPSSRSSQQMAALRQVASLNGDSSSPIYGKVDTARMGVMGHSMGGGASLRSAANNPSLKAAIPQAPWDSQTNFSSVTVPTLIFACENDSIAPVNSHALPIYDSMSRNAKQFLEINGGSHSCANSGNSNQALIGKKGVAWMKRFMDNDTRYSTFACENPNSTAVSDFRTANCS [DuraPETase]"
readout_name = "terephthalic acid"
value_unit = "mM"
numeric_result = 0.00832

[[record]]
record_sequence = "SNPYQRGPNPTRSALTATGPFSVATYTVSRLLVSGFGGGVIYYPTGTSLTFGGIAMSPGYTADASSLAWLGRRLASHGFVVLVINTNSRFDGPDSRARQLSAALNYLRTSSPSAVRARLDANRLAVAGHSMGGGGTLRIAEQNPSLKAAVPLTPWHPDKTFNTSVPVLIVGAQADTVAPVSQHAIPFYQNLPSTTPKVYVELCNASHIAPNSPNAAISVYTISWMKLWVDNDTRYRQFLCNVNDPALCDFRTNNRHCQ [LCC-ICCG I6M]"
readout_name = "terephthalic acid"
value_unit = "mM"
numeric_result = 0.105

[[record]]
record_sequence = "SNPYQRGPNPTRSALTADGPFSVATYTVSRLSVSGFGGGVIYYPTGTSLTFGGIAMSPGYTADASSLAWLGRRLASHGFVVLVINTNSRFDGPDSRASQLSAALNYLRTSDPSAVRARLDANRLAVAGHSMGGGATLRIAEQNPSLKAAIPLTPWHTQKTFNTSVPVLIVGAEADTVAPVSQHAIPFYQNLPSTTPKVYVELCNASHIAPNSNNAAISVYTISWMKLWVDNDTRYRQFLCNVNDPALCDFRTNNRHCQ [LCC-ICCG DAQI]"
readout_name = "terephthalic acid"
value_unit = "mM"
numeric_result = 0.0997


// each listed sequence needs a value for terephthalic acid
1. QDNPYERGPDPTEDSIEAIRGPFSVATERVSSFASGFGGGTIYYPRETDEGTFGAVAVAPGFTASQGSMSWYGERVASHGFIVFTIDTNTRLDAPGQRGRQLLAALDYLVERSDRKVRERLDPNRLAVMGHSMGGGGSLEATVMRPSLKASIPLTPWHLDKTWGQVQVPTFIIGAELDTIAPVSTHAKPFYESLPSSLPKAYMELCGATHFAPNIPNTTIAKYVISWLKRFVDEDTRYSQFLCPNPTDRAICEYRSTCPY [Cut190*SS]
2. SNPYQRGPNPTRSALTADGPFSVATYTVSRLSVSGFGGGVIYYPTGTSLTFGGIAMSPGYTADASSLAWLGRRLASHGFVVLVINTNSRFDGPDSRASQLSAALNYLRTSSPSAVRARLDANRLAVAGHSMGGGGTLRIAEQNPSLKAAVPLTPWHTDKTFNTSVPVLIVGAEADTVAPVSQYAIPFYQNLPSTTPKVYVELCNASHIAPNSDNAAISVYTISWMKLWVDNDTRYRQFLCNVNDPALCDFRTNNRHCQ [LCC-A2]
3. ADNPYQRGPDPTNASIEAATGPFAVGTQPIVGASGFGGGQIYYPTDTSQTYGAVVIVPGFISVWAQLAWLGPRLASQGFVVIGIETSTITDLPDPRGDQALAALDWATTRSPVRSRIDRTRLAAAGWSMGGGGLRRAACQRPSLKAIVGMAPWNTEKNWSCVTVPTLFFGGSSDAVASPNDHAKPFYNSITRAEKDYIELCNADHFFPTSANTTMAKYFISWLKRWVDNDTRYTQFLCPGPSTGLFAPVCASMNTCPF [CaPETaseM9]

Response given:
[0.016, 0.232, 0.0325]

// each listed sequence needs a value for terephthalic acid
1. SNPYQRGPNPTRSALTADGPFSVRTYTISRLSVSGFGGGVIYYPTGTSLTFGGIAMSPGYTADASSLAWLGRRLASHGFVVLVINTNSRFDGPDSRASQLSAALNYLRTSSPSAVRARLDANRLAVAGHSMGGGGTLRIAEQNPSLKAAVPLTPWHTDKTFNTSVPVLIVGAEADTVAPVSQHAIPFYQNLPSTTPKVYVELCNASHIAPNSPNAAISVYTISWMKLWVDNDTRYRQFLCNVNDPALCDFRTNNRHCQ [LCC-ICCG RIP]
2. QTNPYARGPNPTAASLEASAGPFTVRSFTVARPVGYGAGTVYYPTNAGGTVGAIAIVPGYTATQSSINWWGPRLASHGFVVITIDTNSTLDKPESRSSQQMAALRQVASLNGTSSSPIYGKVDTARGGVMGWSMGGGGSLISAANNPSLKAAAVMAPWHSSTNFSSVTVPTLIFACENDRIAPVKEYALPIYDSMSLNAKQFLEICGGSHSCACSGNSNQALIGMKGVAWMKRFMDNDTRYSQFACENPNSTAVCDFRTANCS [HotPETase]
3. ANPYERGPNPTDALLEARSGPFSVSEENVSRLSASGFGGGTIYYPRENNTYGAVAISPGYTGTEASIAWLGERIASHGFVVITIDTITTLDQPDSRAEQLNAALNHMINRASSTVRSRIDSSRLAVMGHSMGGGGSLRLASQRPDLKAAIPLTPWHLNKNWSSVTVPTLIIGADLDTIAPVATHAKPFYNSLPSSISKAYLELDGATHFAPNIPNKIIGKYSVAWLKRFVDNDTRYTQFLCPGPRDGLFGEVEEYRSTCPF [TfCut2]
4. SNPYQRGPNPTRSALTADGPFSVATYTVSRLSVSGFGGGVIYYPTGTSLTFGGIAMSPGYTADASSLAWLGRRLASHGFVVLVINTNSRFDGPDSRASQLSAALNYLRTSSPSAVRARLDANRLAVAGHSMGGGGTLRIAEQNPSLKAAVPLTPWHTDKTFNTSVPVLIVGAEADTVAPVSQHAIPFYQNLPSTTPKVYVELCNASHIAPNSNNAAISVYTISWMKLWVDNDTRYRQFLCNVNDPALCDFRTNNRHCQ [LCC-ICCG]

Response given:
1: 0.113; 2: 0.157; 3: 0.00386; 4: 0.113
